ASSAY_PROCEDURE: Human HepG2 cell viability assay in 384 well format
Format: toxicity, cell-based
Design: dose 125 nL, time 70.5 hour; concentration not given beside the values
CONDITION_SUMMARY: HepG2 cells, read-out: Inhibition
OBSERVATION_TYPE: cytotoxicity at 70.5 h (%)
Note: unit % is implicit; provide only the numeric part.

Prompt: Item Cc1ncncc1-c1ccnc(NC(C)C)n1 : provide cytotoxicity at 70.5 h
Response: -2.82

Prompt: Item CCOc1nnc(CN(C)C2CCCN(c3ccc(C)nn3)C2)s1 (stereo not drawn) : provide cytotoxicity at 70.5 h
Response: -3.1

Prompt: Item c1ccc(N2CCc3ncnc(C4CC4)c3CC2)nc1 : provide cytotoxicity at 70.5 h
Response: -12.5

Prompt: Item Cc1nc(C)n(CC2CCCCN2Cc2nc(-c3ccco3)no2)n1 (stereo not drawn) : provide cytotoxicity at 70.5 h
Response: -5.26

Prompt: Item CC(=O)NC1CCCN(C(=O)Nc2cnc3c(cnn3C(C)C)c2)C1 (stereo not drawn) : provide cytotoxicity at 70.5 h
Response: -2.01

Prompt: Item Cc1cc(C)n(CC2CN(CC(=O)N3CCC3)CCO2)n1 (stereo not drawn) : provide cytotoxicity at 70.5 h
Response: -13.4

Prompt: Item COCCN1CCOCC2(CCCN(Cc3cccc(F)c3)C2)C1 (stereo not drawn) : provide cytotoxicity at 70.5 h
Response: -5.38

Prompt: Item CC(C)N(C)Cc1nnc2n1CCCN(C(=O)C1CCCO1)C2 (stereo not drawn) : provide cytotoxicity at 70.5 h
Response: -7.64

Prompt: Item Cc1nc(C)n(C2CCCN(C(=O)COc3cccc(C#N)c3)C2)n1 (stereo not drawn) : provide cytotoxicity at 70.5 h
Response: -20.2

Prompt: Item CC(C)c1nc(CNc2ccc(CCO)cc2)cs1 : provide cytotoxicity at 70.5 h
Response: 25.6

Prompt: Item COCCc1nnc(NC(=O)CSCc2ccccc2)o1 : provide cytotoxicity at 70.5 h
Response: 1.82

Prompt: Item CN(C)CC1CCN(Cc2nccn2CC(F)(F)F)CC1 : provide cytotoxicity at 70.5 h
Response: -0.976

Prompt: Item O=C(NCc1ccccc1)N1C[C@H]2C[C@H](C(=O)N3CCCC3)[C@@H](C1)O2 : provide cytotoxicity at 70.5 h
Response: -5.41

Prompt: Item Cc1nc(C)c(C)c(NCc2cnn3cccnc23)n1 : provide cytotoxicity at 70.5 h
Response: 3.17

Prompt: Item OC1(CN2CCC(Oc3cccc(C(F)(F)F)c3)CC2)CNCCOC1 (stereo not drawn) : provide cytotoxicity at 70.5 h
Response: -15.4

Prompt: Item CS(=O)(=O)N1CCN(CC(O)COc2ccc(F)cc2)CC1 (stereo not drawn) : provide cytotoxicity at 70.5 h
Response: -11.1

Prompt: Item Cn1ccnc1CN1CCOC(Cn2cccn2)C1 (stereo not drawn) : provide cytotoxicity at 70.5 h
Response: -1.69

Prompt: Item COc1cc(-n2cccc2)c(Cl)cc1C(=O)NS(C)(=O)=O : provide cytotoxicity at 70.5 h
Response: 6

Prompt: Item CC(C)OCCCNC(=O)CS(=O)(=O)Cc1ccc(Cl)cc1 : provide cytotoxicity at 70.5 h
Response: 13

Prompt: Item CCc1cn[nH]c1C1CCN(C(=O)c2cc(C(C)=O)c(C)[nH]c2=O)CC1 : provide cytotoxicity at 70.5 h
Response: -9.17

Prompt: Item O=C(CCn1ccc2ccccc21)N1CCC(Nc2cccnc2)CC1 : provide cytotoxicity at 70.5 h
Response: -1.56

Prompt: Item Cc1ccc(S(=O)(=O)Nc2ccc(-n3nnn(C)c3=O)cc2)cc1 : provide cytotoxicity at 70.5 h
Response: 1.6

Prompt: Item CCc1ccc(C(=O)N2CCC(c3nncn3CC)CC2)cc1 : provide cytotoxicity at 70.5 h
Response: 33.4

Prompt: Item Cc1cc2nc(C(C)C)cc(NCC(c3ccccn3)N(C)C)n2n1 (stereo not drawn) : provide cytotoxicity at 70.5 h
Response: 3.67

Prompt: Item CN(Cc1ccc(F)cc1)Cc1nc(-c2cnccn2)no1 : provide cytotoxicity at 70.5 h
Response: -7.07

Prompt: Item COc1ccc(F)c(CN2CCCC(c3cc(O)nc(C)n3)C2)c1 (stereo not drawn) : provide cytotoxicity at 70.5 h
Response: -3.96

Prompt: Item Cc1cc(NC(=O)CN2CCN(C3CCCC3)C(=O)C2)nn1C : provide cytotoxicity at 70.5 h
Response: -4.01

Prompt: Item O=C(NCC1(O)CCc2ccccc21)Nc1ccc2c(c1)OCO2 (stereo not drawn) : provide cytotoxicity at 70.5 h
Response: -3.18

Prompt: Item CNC(=O)NC(=O)C(C)N1CCC(c2c[nH]c3ccc(OC)cc23)CC1 (stereo not drawn) : provide cytotoxicity at 70.5 h
Response: -2.98

Prompt: Item Fc1cccc(Cl)c1CN1CCC(c2n[nH]c3ncccc23)CC1 : provide cytotoxicity at 70.5 h
Response: 13.7

Prompt: Item O=C(c1cccs1)N1CCC2(CC1)CCN(S(=O)(=O)C1CC1)CC2 : provide cytotoxicity at 70.5 h
Response: -11.7

Prompt: Item CNc1ncc2c(n1)CN(C1CC(C)(C)NC(C)(C)C1)C2=O : provide cytotoxicity at 70.5 h
Response: -12.6

Prompt: Item CCOc1ccccc1CC(=O)N1C[C@H](C2CC2)[C@@H](N)C1 : provide cytotoxicity at 70.5 h
Response: -0.519

Prompt: Item CS(=O)(=O)N1CCC(C(=O)N2CCOc3ccccc32)CC1 : provide cytotoxicity at 70.5 h
Response: -5.71

Prompt: Item CCn1cnnc1CNC(=O)N1CCC(OCc2ccccc2)CC1 : provide cytotoxicity at 70.5 h
Response: -2.7

Prompt: Item Cc1nn(C)c(N(C)C)c1CNCCOc1ccc2c(c1)OCO2 : provide cytotoxicity at 70.5 h
Response: -4.86

Prompt: Item Cc1noc([C@]23COC[C@H]2CN(C(=O)C2CCOCC2)C3)n1 : provide cytotoxicity at 70.5 h
Response: -4.92

Prompt: Item COCc1ccc(C(=O)N2CCCN(Cc3cscn3)CC2)cc1 : provide cytotoxicity at 70.5 h
Response: -6.01

Prompt: Item Cc1ccc(NC2CCCN(CCCc3ccccc3)C2)nn1 (stereo not drawn) : provide cytotoxicity at 70.5 h
Response: 30.2

Prompt: Item Cc1nc(C2CCCN2CCCNS(C)(=O)=O)no1 (stereo not drawn) : provide cytotoxicity at 70.5 h
Response: -0.166

Prompt: Item Cc1ccc(NC2CCN(C(=O)c3ccco3)CC2)nn1 : provide cytotoxicity at 70.5 h
Response: 11.9

Prompt: Item CCN1CC(C(=O)NCCn2cccc2)CC1=O (stereo not drawn) : provide cytotoxicity at 70.5 h
Response: -4.38

Prompt: Item CCC[C@@H]1CN(Cc2c[nH]nc2-c2ccc(OC)cc2)C[C@H]1NC(C)=O : provide cytotoxicity at 70.5 h
Response: -7.5

Prompt: Item COCc1nc2ncc3c(=O)n(-c4ccccc4OC)ccc3n2n1 : provide cytotoxicity at 70.5 h
Response: -5.8

Prompt: Item N#Cc1c(-c2ccccc2)csc1N : provide cytotoxicity at 70.5 h
Response: -22.3

Prompt: Item CS(=O)(=O)CCOCCNc1ccc(C#N)cc1F : provide cytotoxicity at 70.5 h
Response: -7.64

Prompt: Item Cc1nc2ccccc2n(Cc2nnnn2C2CC2)c1=O : provide cytotoxicity at 70.5 h
Response: -5.13

Prompt: Item O=C(CN1CCOC(CNc2cccnn2)C1)N1CCCCC1 (stereo not drawn) : provide cytotoxicity at 70.5 h
Response: -6.36
